target or test system: NADPH cytochrome P-450 reductase (rat liver microsomes) (Rattus norvegicus, UniProt P00388)
Sequence (P00388 1-678): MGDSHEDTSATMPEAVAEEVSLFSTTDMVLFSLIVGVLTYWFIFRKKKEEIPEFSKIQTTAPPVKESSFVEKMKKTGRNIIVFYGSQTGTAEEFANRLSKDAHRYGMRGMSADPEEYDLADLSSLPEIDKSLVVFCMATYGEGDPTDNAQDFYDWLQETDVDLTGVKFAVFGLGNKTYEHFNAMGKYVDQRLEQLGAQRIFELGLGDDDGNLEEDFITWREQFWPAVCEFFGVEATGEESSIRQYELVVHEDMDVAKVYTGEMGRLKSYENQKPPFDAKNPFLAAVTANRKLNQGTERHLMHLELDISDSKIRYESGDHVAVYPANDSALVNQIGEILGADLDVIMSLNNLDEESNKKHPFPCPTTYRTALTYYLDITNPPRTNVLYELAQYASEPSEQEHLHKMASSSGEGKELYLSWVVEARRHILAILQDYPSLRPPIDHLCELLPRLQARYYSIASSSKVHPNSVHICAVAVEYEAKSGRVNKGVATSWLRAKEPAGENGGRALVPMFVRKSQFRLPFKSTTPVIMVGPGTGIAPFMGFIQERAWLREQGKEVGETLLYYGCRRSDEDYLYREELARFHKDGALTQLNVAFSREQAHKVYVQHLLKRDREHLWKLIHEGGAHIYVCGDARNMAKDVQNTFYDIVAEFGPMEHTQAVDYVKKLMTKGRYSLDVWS
assay procedure: Stimulation of NADPH oxidation in rat hepatic microsomal incubations; note: test concentration or dose not given here
test conditions: (drug-stimulated rate - basal rate)/basal rate × 100
Exercise: for every item that follows, state its recorded percentage stimulation of NADPH oxidation over basal rate.
Answers are plain numbers, in %.

Below are worked cases with known answers.
| molecule | readout value |
| --- | --- |
| Cc1c2oc3c(C)c(O)c(N)c(C(=O)NC4C(=O)NC(C(C)C)C(=O)N5CCCC5C(=O)N(C)CC(=O)N(C)C(C(C)C)C(=O)OC4C)c3nc-2c(C(=O)NC2C(=O)NC(C(C)C)C(=O)N3CCCC3C(=O)N(C)CC(=O)N(C)C(C(C)C)C(=O)OC2C)c(N)c1=O (stereo not drawn) [4a, 7-Hydroxy-8-amino-actinomycin D] | 606 |
| CCN(CC)C(=O)c1c2nc3c(C(=O)N(CC)CC)c4nc(C)oc4c(C)c3oc-2c(C)c(=O)c1N | -2 |

Could you now look at the following molecule, please?
query: For the molecule `CCN(CC)C(=O)c1c2nc3c(C(=O)N(CC)CC)ccc(C)c3oc-2c(C)c(=O)c1N` , report percentage stimulation of NADPH oxidation over basal rate.
result: -2
